Data credit: patent US10189809B2

- system: soluble guanylate cyclase (sGC) (Homo sapiens (Human), UniProt Q02108+Q02153)
- Sequence (Q02153 whole entry): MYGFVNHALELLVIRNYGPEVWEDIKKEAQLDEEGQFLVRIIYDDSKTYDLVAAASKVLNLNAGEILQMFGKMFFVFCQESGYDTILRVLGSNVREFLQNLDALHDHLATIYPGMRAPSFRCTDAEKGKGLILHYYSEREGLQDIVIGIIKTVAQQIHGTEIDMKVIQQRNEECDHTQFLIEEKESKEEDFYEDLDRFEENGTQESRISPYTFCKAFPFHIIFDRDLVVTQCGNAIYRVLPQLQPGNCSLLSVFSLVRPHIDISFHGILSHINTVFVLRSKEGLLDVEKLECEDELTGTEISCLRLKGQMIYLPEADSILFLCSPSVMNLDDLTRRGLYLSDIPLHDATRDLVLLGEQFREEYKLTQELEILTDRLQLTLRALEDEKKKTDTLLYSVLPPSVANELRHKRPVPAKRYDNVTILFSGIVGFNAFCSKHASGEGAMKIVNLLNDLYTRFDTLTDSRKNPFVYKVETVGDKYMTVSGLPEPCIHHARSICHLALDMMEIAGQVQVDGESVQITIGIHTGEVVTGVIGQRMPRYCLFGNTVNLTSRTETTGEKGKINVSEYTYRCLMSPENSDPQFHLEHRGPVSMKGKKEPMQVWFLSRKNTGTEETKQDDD
- Sequence (Q02108 whole entry): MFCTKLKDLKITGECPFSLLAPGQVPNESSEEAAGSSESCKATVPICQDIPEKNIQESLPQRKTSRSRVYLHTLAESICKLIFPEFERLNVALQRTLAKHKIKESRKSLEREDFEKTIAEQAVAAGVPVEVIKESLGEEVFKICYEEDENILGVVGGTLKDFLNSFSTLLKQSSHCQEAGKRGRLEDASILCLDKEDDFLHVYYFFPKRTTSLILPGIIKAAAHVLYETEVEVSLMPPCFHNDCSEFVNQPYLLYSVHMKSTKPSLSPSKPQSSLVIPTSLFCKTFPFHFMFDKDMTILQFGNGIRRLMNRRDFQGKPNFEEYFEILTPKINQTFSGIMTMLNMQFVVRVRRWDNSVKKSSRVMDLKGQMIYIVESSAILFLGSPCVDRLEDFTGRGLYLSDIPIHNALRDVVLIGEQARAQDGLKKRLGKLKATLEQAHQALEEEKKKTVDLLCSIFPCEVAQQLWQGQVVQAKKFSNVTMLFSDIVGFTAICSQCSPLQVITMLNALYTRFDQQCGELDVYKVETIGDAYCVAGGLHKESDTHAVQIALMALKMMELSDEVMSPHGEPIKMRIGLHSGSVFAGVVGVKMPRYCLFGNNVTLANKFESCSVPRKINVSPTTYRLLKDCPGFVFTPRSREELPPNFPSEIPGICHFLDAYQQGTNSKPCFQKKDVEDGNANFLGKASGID
- protocol-summary: sGC-HEK-cGMP assay run with SNP incubation (HEK WC assay)
- Assay type: cell-based
- measurement-conditions: read-out: HEK WC Assay (% Emax at 10 μM with 10 uM SNP)
Parameter Emax: see the listing below.

>>> result("CC(=O)Nc1c(N)nc(-c2cc(-c3ccon3)n(Cc3ccccc3F)n2)nc1N")
"0 to 10%"
>>> result("Cc1ccc(C(=O)Nc2cnc(-c3cc(-c4ccon4)n(Cc4ccccc4F)n3)nc2N)cc1")
"80 to 100%"
>>> result("O=[N+]([O-])c1c(O)nc(-c2cc(-c3ccon3)n(Cc3ccccc3F)n2)nc1O")
"0 to 10%"
>>> result("CN(C(=O)c1ccccc1)c1cnc(-c2cc(-c3ccon3)n(Cc3ccccc3F)n2)nc1N")
"40 to 60%"
>>> result("C=CCOC1(c2cnc(-c3cc(-c4ccon4)n(Cc4ccccc4F)n3)nc2N)CC1")
"60 to 80%"
>>> result("Nc1nc(-c2cc(-c3ccon3)n(Cc3ccccc3F)n2)ncc1NC(=O)C1CC1")
"100 to 120%"

Look up Emax: Fc1ccccc1Cn1nc(-c2ncc(F)c(S)n2)cc1-c1ccon1 60 to 80%

###

- system: soluble guanylate cyclase (sGC) (Homo sapiens (Human), UniProt Q02108+Q02153)
- protocol-summary: sGC-HEK-cGMP assay run with SNP incubation (HEK WC assay)
- Assay type: cell-based
- measurement-conditions: read-out: HEK WC Assay (% Emax at 30 μM with 10 uM SNP)
observable: Emax

Use these answered entries as a reference point.
>>> result("Nc1nc(-c2cc(-c3ncco3)n(Cc3ccccc3F)n2)ncc1F")
"60 to 80%"
>>> result("Cc1nc(-c2cc(-c3ccon3)n(Cc3ccccc3F)n2)nc(O)c1F")
"20 to 40%"
>>> result("O=c1[nH]c2cnc(-c3cc(-c4ccon4)n(Cc4ccccc4F)n3)nc2[nH]1")
"40 to 60%"
>>> result("CS(=O)(=O)Nc1cnc(-c2cc(-c3ccon3)n(Cc3ccccc3F)n2)nc1N")
"20 to 40%"
>>> result("CC(=O)Nc1cnc(-c2cc(-c3ncco3)n(Cc3ccccc3F)n2)nc1N")
"60 to 80%"
>>> result("Nc1nc(-c2cc(-c3ccon3)n(Cc3ccccc3F)n2)ncc1NC(=O)c1cccc(C(F)(F)F)c1")
"80 to 100%"

Query for soluble guanylate cyclase (sGC) (Homo sapiens (Human), UniProt Q02108+Q02153): what Emax does the record show for Fc1cccc(Cn2nc(-c3ncccn3)cc2-c2ccon2)c1F ? 60 to 80%

Which measured Emax belongs to Nc1nc(-c2cc(-c3ccon3)n(Cc3ccccc3F)n2)ncc1NC(=O)c1ccc(Cl)cc1 , tested on soluble guanylate cyclase (sGC) (Homo sapiens (Human), UniProt Q02108+Q02153)? 80 to 100%

###

Reported pEC50 is given for each of the following molecules.
- system: soluble guanylate cyclase (sGC) (Homo sapiens (Human), UniProt Q02108+Q02153)
- protocol-summary: sGC-HEK-cGMP assay run with SNP incubation (HEK WC assay)
- Type: cell-based
- measurement-conditions: in the presence of 10 uM SNP
pEC50: −log10 of the molar value.

// below: answered molecules
>>> result("Nc1nc(-c2cc(-c3ccon3)n(Cc3ccccc3F)n2)ncc1NC(=O)c1ccccc1OC(F)(F)F")
"4.40 to 4.70"
>>> result("Nc1nc(-c2cc(-c3ccon3)n(Cc3ccccc3F)n2)ncc1N1Cc2ccccc2C1=O")
"> 4.70"
>>> result("NCC(=O)Nc1cnc(-c2cc(-c3ccon3)n(Cc3ccccc3F)n2)nc1N")
"4.00 to 4.22"
>>> result("Nc1nc(-c2cc(-c3ccon3)n(Cc3ccccc3F)n2)ncc1NC(=O)c1ccccc1Cl")
"> 4.70"
>>> result("C=CC(C)(C)C(=O)Nc1cnc(-c2cc(-c3ccon3)n(Cc3ccccc3F)n2)nc1N")
"> 4.70"
>>> result("O=S(=O)(c1cnc(-c2cc(-c3ccon3)n(Cc3ccccc3F)n2)nc1O)N1CCOCC1")
"> 4.70"

Moving on to another molecule below.
# get_value(readout='pEC50', item= Oc1ccnc(-c2cc(-c3ccon3)n(Cc3ccccc3F)n2)n1 ) > 4.70

###

# Emax per entry
- system: soluble guanylate cyclase (sGC) (Homo sapiens (Human), UniProt Q02108+Q02153)
- protocol-summary: sGC-HEK-cGMP assay run with SNP incubation (HEK WC assay)
- Format: cell-based
- measurement-conditions: read-out: HEK WC Assay (% Emax at 10 μM with 10 uM SNP)

Known Emax results, listed for orientation:
>>> result("Nc1nc(-c2cc(-c3ccon3)n(Cc3ccccc3F)n2)ncc1NC(=O)OCCCl [Compound I-152]")
"60 to 80%"
>>> result("CC(C)(Oc1ccccc1)C(=O)Nc1cnc(-c2cc(-c3ccon3)n(Cc3ccccc3F)n2)nc1N [Compound I-230]")
"20 to 40%"
>>> result("Nc1nc(-c2cc(-c3ccon3)n(Cc3ccccc3F)n2)ncc1NC(=O)c1ccccc1 [Compound I-126]")
"100 to 120%"
>>> result("Nc1nc(-c2cc(-c3ccon3)n(Cc3ccccc3F)n2)ncc1NC(=O)CCCCl [Compound I-167]")
"80 to 100%"
>>> result("CC(C)(C)C(=O)Nc1cnc(-c2cc(-c3ncco3)n(Cc3ccccc3F)n2)nc1N [Compound I-191]")
"40 to 60%"

# query: Emax of entry Fc1ccccc1Cn1nc(-c2cccc(Br)n2)cc1-c1ccccn1 [Compound I-308] 0 to 10%

###

- system: soluble guanylate cyclase (sGC) (Homo sapiens (Human), UniProt Q02108+Q02153)
- protocol-summary: sGC-HEK-cGMP assay run with SNP incubation (HEK WC assay)
- Type: cell-based
- measurement-conditions: read-out: HEK WC Assay (% Emax at 30 μM with 10 uM SNP)
- Procedure: Human embryonic kidney cells (HEK293), endogenously expressing soluble guanylate cyclase (sGC), were used to evaluate the activity of test compounds. Compounds stimulating the sGC receptor should cause an increase in the intracellular concentration of cGMP. […] EC50 values were calculated from concentration-response curves generated with GraphPad Prism Software.
Listed below: Emax values for each entry.

>>> result("Nc1nc(-c2cc(-c3ccon3)n(Cc3ccccc3F)n2)ncc1NC(=O)c1ccccc1OC(F)(F)F [Compound I-211]")
"40 to 60%"
>>> result("COCC(=O)Nc1cnc(-c2cc(-c3ccon3)n(Cc3ccccc3F)n2)nc1N [Compound I-177]")
"80 to 100%"
>>> result("Nc1nc(-c2cc(-c3ccon3)n(Cc3ccccc3F)n2)ncc1NC(=O)CN1C(=O)c2ccccc2C1=O [Compound I-212]")
"60 to 80%"

Now look at this one.
Param item = C=C(C)C(=O)Nc1cnc(-c2cc(-c3ccon3)n(Cc3ccccc3F)n2)nc1N [Compound I-258] ; retrieve measured Emax. 60 to 80%

###

- system: soluble guanylate cyclase (sGC) (Homo sapiens (Human), UniProt Q02108+Q02153)
- protocol-summary: sGC-HEK-cGMP assay run with SNP incubation (HEK WC assay)
- Type: cell-based
- measurement-conditions: read-out: HEK WC Assay (% Emax at 10 μM with 10 uM SNP)
- Method: Human embryonic kidney cells (HEK293), endogenously expressing soluble guanylate cyclase (sGC), were used to evaluate the activity of test compounds. Compounds stimulating the sGC receptor should cause an increase in the intracellular concentration of cGMP. […] EC50 values were calculated from concentration-response curves generated with GraphPad Prism Software.
Emax overview

>>> result("Nc1nc(-c2cc(-c3ccon3)n(Cc3ccccc3F)n2)ncc1C1(O)CC1 [Compound I-119]")
"100 to 120%"

What value of measured Emax is listed for CN(C(=O)C(C)(C)C)c1cnc(-c2cc(-c3ccon3)n(Cc3ccccc3F)n2)nc1N [Compound I-234] ? 40 to 60%

Reported Emax for CS(=O)(=O)Nc1cnc(-c2cc(-c3ccon3)n(Cc3ccccc3F)n2)nc1N [Compound I-145] : what is it? 20 to 40%

Recorded Emax of Cc1csc(-c2cc(-c3ncccn3)nn2Cc2ccccc2F)n1 [Compound I-294] , please. 20 to 40%

Which Emax reading was recorded for the compound C=CC(C)(C)C(=O)Nc1cnc(-c2cc(-c3ccon3)n(Cc3ccccc3F)n2)nc1N [Compound I-246] ? 100 to 120%

Dear colleague, I am looking for the recorded Emax of the following compound: Oc1cc(O)nc(-c2cc(-c3ccon3)n(Cc3ccccc3F)n2)n1 [Compound I-261] 0 to 10%

Find the recorded Emax belonging to Nc1nc(-c2cc(-c3ccon3)n(Cc3ccccc3F)n2)ncc1N1CCOC1=O [Compound I-153] and report it. 40 to 60%
